Assay: Cytotoxicity against human MT4 cells assessed as reduction in cell viability incubated for 5 days by MTT assay
Assay type: toxicity, cell-based
Details: MT4 cells, time 5 day

# Smiles text, CC50 at 120 h
rows = [
    ("COc1ccc(N(C)C(=O)[C@H](Cc2ccccc2)NC(=O)Cn2ccc(NC(=O)c3ccc(N)cc3)cc2=O)cc1", "189 µM"),
    ("COc1ccc(-n2c(SCCC(F)(F)F)nnc2[C@H](Cc2ccccc2)NC(=O)Cc2c(C)[nH]c3ccccc23)cc1", "30.8 µM"),
    ("COc1ccc(N(C)C(=O)[C@H](Cc2ccccc2)NC(=O)Cn2ccc(NC(=O)c3ccccc3F)cc2=O)cc1", "81.4 µM"),
    ("COc1ccc(N(C)C(=O)[C@H](Cc2ccccc2)NC(=O)CN2CCN(C(=O)c3ccc(NS(C)(=O)=O)cc3)CC2=O)cc1", "> 201 µM"),
    ("COC(=O)CSc1nnc([C@H](Cc2ccccc2)NC(=O)Cc2c(C)[nH]c3ccccc23)n1-c1ccc(OC)cc1", "82.3 µM"),
    ("COc1ccc(N(C)C(=O)[C@H](Cc2ccccc2)NC(=O)CN2CCN(C(=O)c3ccc(NC(=O)C(F)(F)F)cc3)CC2=O)cc1", "> 195 µM"),
    ("COc1ccc(N(C)C(=O)[C@H](Cc2ccccc2)NC(=O)CN2CCN(C(=O)Cc3c[nH]c4ccccc34)CC2=O)cc1", "112 µM"),
]

###

Experiment: Selectivity index, ratio of CC50 for cytotoxicity against human MT4 cells to EC50 for antiviral activity against HIV1 IIIB infected in human MT4 cells
Format: toxicity, cell-based
Details: read-out: Ratio CC50/EC50
Note to self: use Yes only for selectivity ratio readings below 30; a reading exactly at 30 still gets No.

# Smiles text, Discrete label
rows = [
    ("COc1ccc(N(C)C(=O)[C@H](Cc2cc(F)cc(F)c2)NC(=O)CN2CCN(S(=O)(=O)c3ccc(Br)cc3)CC2)cc1", "Yes"),
    ("COc1ccc(N(C)C(=O)[C@H](Cc2cc(F)cc(F)c2)NC(=O)CN2CCN(C(=O)Cc3c[nH]c4ccc(OC)cc34)CC2=O)cc1", "Yes"),
    ("COc1ccc(-n2c(S)nnc2[C@H](Cc2ccccc2)NC(=O)Cc2c(C)[nH]c3ccccc23)cc1", "Yes"),
    ("COc1ccc(-n2c([C@H](Cc3cc(F)cc(F)c3)NC(=O)CN3CCN(S(=O)(=O)c4ccc([N+](=O)[O-])cc4)CC3)nc3cc(Cl)ccc3c2=O)cc1", "No"),
    ("COc1ccc(N(C)C(=O)[C@H](Cc2cc(F)cc(F)c2)NC(=O)CN2CCN(C(=O)Cc3c[nH]c4ccc(Br)cc34)CC2=O)cc1", "Yes"),
    ("COc1ccc(N(C)C(=O)[C@H](Cc2cc(F)cc(F)c2)NC(=O)CN2CCN(S(=O)(=O)c3ccc(NC(C)=O)cc3)CC2)cc1", "No"),
    ("COc1ccc(-n2c([C@H](Cc3ccccc3)NC(=O)CN3CCN(S(=O)(=O)c4ccc([N+](=O)[O-])cc4)CC3=O)nc3ccccc3c2=O)cc1", "No"),
    ("COc1ccc(N(C)C(=O)[C@H](Cc2cc(F)cc(F)c2)NC(=O)CN(C(=O)Cc2ccc(B3OC(C)(C)C(C)(C)O3)cc2)C2CC2)cc1", "Yes"),
    ("COc1ccc(N(C)C(=O)[C@H](Cc2cc(F)cc(F)c2)NC(=O)CN(Cc2ccc(C#N)cc2)C(=O)Cc2ccc(B3OC(C)(C)C(C)(C)O3)cc2)cc1", "Yes"),
    ("COc1ccc(N(C)C(=O)[C@H](Cc2cc(F)cc(F)c2)NC(=O)CN(C(=O)Cc2c(C)[nH]c3ccccc23)C2CC2)cc1", "No"),
    ("COc1ccc(-n2c(SCC(N)=O)nnc2[C@H](Cc2ccccc2)NC(=O)Cc2c(C)[nH]c3ccccc23)cc1", "No"),
    ("COc1ccc(N(C)C(=O)[C@H](Cc2cc(F)cc(F)c2)NC(=O)CN2CCN(C(=O)Cc3c(C)[nH]c4ccccc34)CC2=O)cc1", "Yes"),
    ("Nc1ccc(S(=O)(=O)N2CCN(CC(=O)N[C@@H](Cc3ccccc3)c3nc4ccccc4c(=O)n3-c3ccc(S(=O)(=O)N4CCOCC4)cc3)CC2)cc1", "No"),
    ("COC(=O)CSc1nnc([C@H](Cc2ccccc2)NC(=O)Cc2c(C)[nH]c3ccccc23)n1-c1ccc(OC)cc1", "Yes"),
    ("COc1ccc(N(C)C(=O)[C@H](Cc2cc(F)cc(F)c2)NC(=O)CN2CCN(S(=O)(=O)c3ccc(Cl)cc3)CC2)cc1", "Yes"),
    ("COc1ccc(N(C)C(=O)[C@H](Cc2cc(F)cc(F)c2)NC(=O)Cn2ccc(N)cc2=O)cc1", "No"),
    ("COc1ccc(N(C)C(=O)[C@H](Cc2ccccc2)NC(=O)CN2CCN(C(=O)c3ccc(NC(=O)C4CC4)cc3)CC2=O)cc1", "Yes"),
    ("COc1ccc(-n2c(SCC#N)nnc2[C@H](Cc2ccccc2)NC(=O)Cc2c(C)[nH]c3ccccc23)cc1", "No"),
    ("COc1ccc(-n2c([C@H](Cc3ccccc3)NC(=O)CN3CCN(S(=O)(=O)c4ccc(N)cc4)CC3)nc3cc(Cl)ccc3c2=O)cc1", "No"),
    ("COc1ccc(-n2c(SCc3cncs3)nnc2[C@H](Cc2ccccc2)NC(=O)Cc2c(C)[nH]c3ccccc23)cc1", "No"),
    ("COc1ccc(N(C)C(=O)[C@H](Cc2cc(F)cc(F)c2)NC(=O)CN2CCN(C(=O)c3ccc(NC(=O)C4CC4)cc3)CC2=O)cc1", "Yes"),
    ("COc1ccc(N(C)C(=O)[C@H](Cc2cc(F)cc(F)c2)NC(=O)CN2CCN(C(=O)Cc3c[nH]c4ccc(F)cc34)CC2=O)cc1", "Yes"),
    ("COc1ccc(N(C)C(=O)[C@H](Cc2cc(F)cc(F)c2)NC(=O)CN(Cc2ccc(F)cc2)C(=O)Cc2c(C)[nH]c3ccccc23)cc1", "Yes"),
    ("COc1ccc(-n2c(SCCN3CCOCC3)nnc2[C@H](Cc2ccccc2)NC(=O)Cc2c(C)[nH]c3ccccc23)cc1", "No"),
    ("COc1ccc(N(C)C(=O)[C@H](Cc2ccccc2)NC(=O)CN2CCN(C(=O)Cc3c[nH]c4ccc(Br)cc34)CC2=O)cc1", "Yes"),
]

###

Entries and their measured selectivity ratio follow.
Test: Selectivity index, ratio of CC50 for cytotoxicity against human MT4 cells to EC50 for antiviral activity against HIV1 IIIB infected in human MT4 cells
Format: toxicity, cell-based
Conditions: read-out: Ratio CC50/EC50

# Smiles text, Prefix operator, selectivity ratio
measured = [
    ("COc1ccc(-n2c(SCCC(F)(F)F)nnc2[C@H](Cc2ccccc2)NC(=O)Cc2c(C)[nH]c3ccccc23)cc1", "=", 11),
    ("COc1ccc(N(C)C(=O)[C@H](Cc2cc(F)cc(F)c2)NC(=O)CN(Cc2ccc(F)cc2)C(=O)Cc2ccc(B3OC(C)(C)C(C)(C)O3)cc2)cc1", "=", 6),
    ("COc1ccc(N(C)C(=O)[C@H](Cc2cc(F)cc(F)c2)NC(=O)CN(CC2CCCCC2)C(=O)Cc2c[nH]c3ccc(Br)cc23)cc1", "<", 1),
    ("COc1ccc(N(C)C(=O)[C@H](Cc2ccccc2)NC(=O)CN2CCN(C(=O)c3ccc(NS(C)(=O)=O)cc3)CC2=O)cc1", ">", 1.05),
]

###

Entries and their measured Ratio EC50 follow.
Assay: Selectivity ratio of EC50 for antiviral activity against HIV1 IIIB infected in human MT4 cells to EC50 for antiviral activity against HIV2 ROD infected in human MT4 cells
Format: toxicity, cell-based

# Smiles text, Ratio EC50
data = [
    ("COc1ccc(N(C)C(=O)[C@H](Cc2cc(F)cc(F)c2)NC(=O)CN(Cc2ccccc2)C(=O)Cc2c(C)[nH]c3ccccc23)cc1", 0.42),
    ("COc1ccc(N(C)C(=O)[C@H](Cc2cc(F)cc(F)c2)NC(=O)CN2CCN(S(=O)(=O)c3ccc(N)cc3)CC2)cc1", 2.4),
    ("COc1ccc(N(C)C(=O)[C@H](Cc2cc(F)cc(F)c2)NC(=O)CN2CCN(S(=O)(=O)c3ccc(F)cc3)CC2)cc1", 2.19),
    ("COc1ccc(N(C)C(=O)[C@H](Cc2cc(F)cc(F)c2)NC(=O)CN(C(=O)Cc2c(C)[nH]c3ccccc23)C2CC2)cc1", 0.18),
]

###

Assay: Selectivity ratio of EC50 for antiviral activity against HIV1 IIIB infected in human MT4 cells to EC50 for antiviral activity against HIV2 ROD infected in human MT4 cells
Assay type: toxicity, cell-based
Outcome measure: Ratio EC50

# Smiles text, Outcome measure, Result number
data = [
    ("O=C(CN1CCN(S(=O)(=O)c2ccc([N+](=O)[O-])cc2)CC1)N[C@@H](Cc1cc(F)cc(F)c1)c1nc2ccccc2c(=O)n1-c1ccc(S(=O)(=O)N2CCS(=O)(=O)CC2)cc1", "Ratio EC50", 1.54),
    ("COc1ccc(-n2c(SCCCN3CCOCC3)nnc2[C@H](Cc2ccccc2)NC(=O)Cc2c(C)[nH]c3ccccc23)cc1", "Ratio EC50", 0.16),
    ("COc1ccc(N(C)C(=O)[C@H](Cc2cc(F)cc(F)c2)NC(=O)CN2CCN(S(=O)(=O)c3ccccc3F)CC2)cc1", "Ratio EC50", 2),
    ("COc1ccc(N(C)C(=O)[C@H](Cc2cc(F)cc(F)c2)NC(=O)CN(Cc2ccc(C#N)cc2)C(=O)Cc2cccc3ccccc23)cc1", "Ratio EC50", 82.32),
    ("COc1ccc(-n2c(SCc3ccc(S(C)(=O)=O)cc3)nnc2[C@H](Cc2ccccc2)NC(=O)Cc2c(C)[nH]c3ccccc23)cc1", "Ratio EC50", 0.31),
    ("COc1ccc(N(C)C(=O)[C@H](Cc2ccccc2)NC(=O)Cn2ccc(N)cc2=O)cc1", "Ratio EC50", 1.47),
    ("COc1ccc(N(C)C(=O)[C@H](Cc2cc(F)cc(F)c2)NC(=O)CN(C(=O)Cc2ccc(B3OC(C)(C)C(C)(C)O3)cc2)C2CC2)cc1", "Ratio EC50", 0.53),
]
